assay: Oral bioavailability in beagle dog at 1 mg/kg; format: ADME, organism-based, Canis lupus familiaris; details: in vivo
READOUT_TYPE: bioavailability (%)
// return numeric value only (unit: %, not printed)

Give the measured bioavailability of O=c1c2c(Nc3ccc(I)cc3F)cncc2cnn1C[C@H](O)CO .
43

###

assay: Clearance in rat liver microsomes; format: ADME; conditions: read-out: CLH
READOUT_TYPE: microsomal CLint (µL/min/mg)
Supply the numeric figure in µL/min/mg, leaving out any unit text.

Look up microsomal CLint for this molecule: O=c1c2c(Nc3ccc(I)cc3F)cncc2cnn1C[C@H](O)CO
2.38

###

experiment: AUC in beagle dog at 1 mg/kg, iv; type: ADME, organism-based, Canis lupus familiaris; set-up: dose 1 mg/kg, route intravenous; settings: plasma
READOUT_TYPE: AUC (ng·h/mL)
# value in ng·h/mL; strip the unit string

Please give the measured AUC for this compound: O=c1c2c(Nc3ccc(I)cc3F)cncc2cnn1C[C@H](O)CO
1190

###

experiment: Half life in beagle dog at 1 mg/kg, po; assay type: ADME, organism-based, Canis lupus familiaris; set-up: dose 1 mg/kg, route oral; settings: in vivo
READOUT_TYPE: half-life (min)
Report only the number, with the unit min understood.

Report half-life for O=c1c2c(Nc3ccc(I)cc3F)cncc2cnn1C[C@H](O)CO please.
293

###

target: Dual specificity mitogen-activated protein kinase kinase 1 (Homo sapiens); experiment: Inhibition of MEK1 (unknown origin)
Sequence (Q02750 whole entry): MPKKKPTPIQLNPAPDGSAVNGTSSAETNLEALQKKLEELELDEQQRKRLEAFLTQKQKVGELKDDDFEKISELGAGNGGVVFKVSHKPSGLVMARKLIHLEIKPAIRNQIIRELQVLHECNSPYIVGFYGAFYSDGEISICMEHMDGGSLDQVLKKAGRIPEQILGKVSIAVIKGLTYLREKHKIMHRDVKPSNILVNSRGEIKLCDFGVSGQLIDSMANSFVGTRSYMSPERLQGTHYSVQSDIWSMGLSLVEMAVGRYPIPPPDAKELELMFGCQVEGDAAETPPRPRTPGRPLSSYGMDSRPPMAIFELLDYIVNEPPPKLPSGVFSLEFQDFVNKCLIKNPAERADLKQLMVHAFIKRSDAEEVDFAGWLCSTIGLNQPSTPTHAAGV
READOUT_TYPE: IC50 (nM)
Report the figure in nM without appending any unit label.

Given the compound Cn1c(=O)c(F)c(Nc2ccc(I)cc2F)c2c(=O)n(C[C@@H](O)CO)cnc21 [TAK-733] , what is its reported IC50?
1.79

###

experiment: Half life in beagle dog at 1 mg/kg, iv; type: ADME, organism-based, Canis lupus familiaris; parameters: dose 1 mg/kg, route intravenous; conditions: in vivo
READOUT_TYPE: half-life
Please answer in the form of a number followed by its unit of measurement.

Give its half-life value. Item: O=c1c2c(Nc3ccc(I)cc3F)cncc2cnn1C[C@H](O)CO
3.11 h

###

assay: Plasma protein binding in human; format: ADME, cell-free; settings: read-out: PPB (converted)
READOUT_TYPE: fraction unbound

Need fraction unbound of O=c1c2c(Nc3ccc(I)cc3F)cncc2cnn1C[C@H](O)CO , thanks.
0.033

###

experiment: AUC in rat at 5 mg/kg, po; type: ADME, organism-based; set-up: dose 5 mg/kg, route oral; conditions: plasma
READOUT_TYPE: AUC (ng·h/mL)
The response must be a number in ng·h/mL with no trailing unit.

Item under review: O=c1c2c(Nc3ccc(I)cc3F)cncc2cnn1C[C@H](O)CO . Reported AUC?
4890

###

assay: Half life in rat at 5 mg/kg, po; type: ADME, organism-based; parameters: dose 5 mg/kg, route oral; conditions: in vivo
READOUT_TYPE: half-life (h)
Write the value in h as a bare number.

What does the record list as half-life for O=c1c2c(Nc3ccc(I)cc3F)cncc2cnn1C[C@H](O)CO ?
5.56
